// reported relative affinity per item
experimental-target: T1, HLA-DP402 (HLA-DPB1*04:02) (human, UniProt P20036 29-222)
T1 construct: mature; purified from homozygous EBV-transformed lymphoblastoid cells with antibody B7/21
assay-remarks: competition ELISA vs biotin-Oxy 271-287
No end group written: not given here.
Answer as a number with no unit attached.

Ask: Looking for the measured relative affinity of MEMKILRALNFGLGR-NH2 [CCNB1 285-299] , can you help?
Result: 4

This collection of values is drawn from patent US20180086804A1.
